# Tested on: HEK-293T
# Assay Summary: Multiplex assay against HEK293T
# Format: toxicity, cell-based
# Run Conditions: human, 12 h, 10 µM, compound concentration 10 uM, replicate 2
Measured Endpoint: Population Mitochondria Different-Phenotype (%)
Enter your answer as a number in %; do not include the unit.

Some molecules with known Population Mitochondria Different-Phenotype (%) results, for comparison:
{"Input Smiles": "C=CCn1c(=O)c2cnc(Nc3ccc(N4CCN(C)CC4)cc3)nc2n1-c1cccc(C(C)(C)O)n1", "Recorded Number": 32}
{"Input Smiles": "Cl.Oc1ccc2c3c1O[C@H]1c4[nH]c5c(c4C[C@@]4(O)[C@@H](C2)N(CC2CC2)CC[C@]314)C[C@@]1(O)[C@H]2Cc3ccc(O)c4c3[C@@]1(CCN2CC1CC1)[C@H]5O4", "Recorded Number": 27}
{"Input Smiles": "O=C1N/C(=N/c2ccccc2F)S/C1=C\\c1ccc(C(=O)O)cc1", "Recorded Number": 18}
{"Input Smiles": "Cc1cc(C)c(S(=O)(=O)N(Cc2ccc(-c3cccc(S(C)(=O)=O)c3)cc2)Cc2ccc(C(F)(F)F)o2)c(C)c1", "Recorded Number": 20}
{"Input Smiles": "CNC(=O)c1ccc(Nc2nc(OC3CCCC3)c3c(-c4ccc5nc(C)oc5c4)c[nH]c3n2)c(OC)c1", "Recorded Number": 27}

Item: CCOc1cc(C(=O)N2CCC(N3CCN(C)CC3)CC2)ccc1Nc1ncc2c(n1)N(C1CCCC1)c1ccccc1C(=O)N2C Test system: HEK-293T Read-out: Population Mitochondria Different-Phenotype (%) Value: ?
100

Item: COc1ccc(-c2ccc3c(N4CCOCC4)nc(N4C[C@@H](C)O[C@@H](C)C4)nc3n2)cc1CO Test system: HEK-293T Read-out: Population Mitochondria Different-Phenotype (%) Value: ?
15

---

# Tested on: U2OS
# Assay Summary: Multiplex assay against U2OS
# Format: toxicity, cell-based
# Run Conditions: human, 48 h, 10 µM, compound concentration 10 uM, replicate 2
Recorded Population Hoechst High Intensity Objects (%) for the following molecules
Enter your answer as a number in %; do not include the unit.

Some molecules with known Population Hoechst High Intensity Objects (%) results, for comparison:
{"Molecule": "COCC(=O)NC/C=C/c1ccc2ncnc(Nc3ccc(Oc4ccc(C)nc4)c(C)c3)c2c1", "Recorded Number": 14}
{"Molecule": "O=C(Nc1ccc(Cl)cc1)Nc1cccc(-c2cccc(N3CCCC3)n2)c1", "Recorded Number": 39}
{"Molecule": "CCn1c(=O)c(-c2ccc(-c3cncs3)cc2Cl)cc2cnc(Nc3ccc(N4CCN(C)CC4)cc3)nc21", "Recorded Number": 3}
{"Molecule": "O=C1N/C(=N/c2ccccc2F)S/C1=C\\c1ccc(C(=O)O)cc1", "Recorded Number": 2}

Can you look up the measured Population Hoechst High Intensity Objects (%) of S=C(NCCCc1c[nH]cn1)NCCCN(Cc1ccc(Cl)c(Cl)c1)c1ccc(Br)cn1 for me?
30

Can you look up the measured Population Hoechst High Intensity Objects (%) of O=C(Cc1ccc(-c2ccc(OCCN3CCOCC3)cc2)cn1)NCc1ccccc1 for me?
11

Can you look up the measured Population Hoechst High Intensity Objects (%) of CCOC(=O)c1c(C)[nH]c2ccc3c(c12)CN1CCc2cc(OC)ccc2C1O3 (stereo not drawn) for me?
14

Can you look up the measured Population Hoechst High Intensity Objects (%) of CNc1cc(Oc2cc(C(=O)Nc3cc(N4CCN(C)CC4)cc(C(F)(F)F)c3)ccc2C)ncn1 for me?
50

Can you look up the measured Population Hoechst High Intensity Objects (%) of Cc1ccc(C(=O)Nc2cccc(C(F)(F)F)c2)cc1Nc1nc(-c2cccnc2)nc2c1cnn2C for me?
28

Can you look up the measured Population Hoechst High Intensity Objects (%) of C=C1/C(=C\C=C2/CCC[C@]3(C)[C@@H]([C@H](C)/C=C/[C@H](C)C(C)C)CC[C@@H]23)C[C@@H](O)C[C@@H]1O for me?
3

Can you look up the measured Population Hoechst High Intensity Objects (%) of Cl.O=c1c2cccn2c2ccccc2n1CCCN1CCC(c2ccc(Cl)cc2)CC1 for me?
10

Can you look up the measured Population Hoechst High Intensity Objects (%) of O=C1NC(=O)C(c2cnc3ccccn23)=C1c1cn2c3c(cc(F)cc13)CN(C(=O)N1CCCCC1)CC2 for me?
11
